Target: Na,K-ATPase α2β3 isoform complex (Homo sapiens)
Assay: biochemical
MEASURED METRIC: pKi
Numbers only, as −log10 of the molar value.

Consider the reported pKi for these compounds:
COMPOUND	pKi
CCCN1CCC(OC2C(O)CC(OC3C(O)CC(OC4CCC5(C)C(CCC6C5CC(O)C5(C)C(C7=CC(=O)OC7)CCC65O)C4)OC3C)OC2C)OC(C)C1 (centres unmarked) [DP]	8.01
CC1CN(C(C)C)CCC(OC2C(O)CC(OC3C(O)CC(OC4CCC5(C)C(CCC6C5CC(O)C5(C)C(C7=CC(=O)OC7)CCC65O)C4)OC3C)OC2C)O1 (centres unmarked) [DIP]	7.99
CC1CN(CC(F)(F)F)CCC(OC2C(O)CC(OC3C(O)CC(OC4CCC5(C)C(CCC6C5CC(O)C5(C)C(C7=CC(=O)OC7)CCC65O)C4)OC3C)OC2C)O1 (centres unmarked) [DMeCF3]	7.91
CC1CN(C[Si](C)(C)C)CCC(OC2C(O)CC(OC3C(O)CC(OC4CCC5(C)C(CCC6C5CC(O)C5(C)C(C7=CC(=O)OC7)CCC65O)C4)OC3C)OC2C)O1 (centres unmarked) [DTMS]	8.11

Continue with the next compound.
May I ask what pKi has been recorded for CC1CN(C(C)(C)C)CCC(OC2C(O)CC(OC3C(O)CC(OC4CCC5(C)C(CCC6C5CC(O)C5(C)C(C7=CC(=O)OC7)CCC65O)C4)OC3C)OC2C)O1 (centres unmarked) [DtB] ?
7.79

###

Target: Na,K-ATPase α2β1 isoform complex (Homo sapiens, UniProt P50993)
Assay: biochemical
Assay type: biochemical
Settings: Ki ± S.E. α2, Table 2; α2β1
MEASURED METRIC: Ki (nM)
Give bare numbers, in nM.

MOLECULE	OBSERVED VALUE
CC1CN(CCC(N)=O)CCC(OC2C(O)CC(OC3C(O)CC(OC4CCC5(C)C(CCC6C5CC(O)C5(C)C(C7=CC(=O)OC7)CCC65O)C4)OC3C)OC2C)O1 (stereo not drawn)	47
CC1CN(CC(=O)O)CCC(OC2C(O)CC(OC3C(O)CC(OC4CCC5(C)C(CCC6C5CC(O)C5(C)C(C7=CC(=O)OC7)CCC65O)C4)OC3C)OC2C)O1 (stereo not drawn)	25
COC(=O)CN1CCC(OC2C(O)CC(OC3C(O)CC(OC4CCC5(C)C(CCC6C5CC(O)C5(C)C(C7=CC(=O)OC7)CCC65O)C4)OC3C)OC2C)OC(C)C1 (stereo not drawn)	128
CC1CN(C(C)C(N)=O)CCC(OC2C(O)CC(OC3C(O)CC(OC4CCC5(C)C(CCC6C5CC(O)C5(C)C(C7=CC(=O)OC7)CCC65O)C4)OC3C)OC2C)O1 (stereo not drawn)	67
CCN1CCC(OC2C(O)CC(OC3C(O)CC(OC4CCC5(C)C(CCC6C5CC(O)C5(C)C(C7=CC(=O)OC7)CCC65O)C4)OC3C)OC2C)OC(C)C1 (stereo not drawn)	18.5

Continue with the next molecule.
May I ask what Ki has been recorded for CC1CN(CCN)CCC(OC2C(O)CC(OC3C(O)CC(OC4CCC5(C)C(CCC6C5CC(O)C5(C)C(C7=CC(=O)OC7)CCC65O)C4)OC3C)OC2C)O1 (stereo not drawn) ?
16.7
